Known Thermal stabilisation brd2(1) of a selection of compounds
MEASURED_TARGET: Brd2(1) (Homo sapiens)
Construct: Plasmids of the eight single BET bromodomain constructs Brd2(1), Brd2(2), Brd3(1), Brd3(2); His6 (N); made in house; host or cells: E. coli BL21(DE3)
Sequence (P25440 74-180 limits assumed): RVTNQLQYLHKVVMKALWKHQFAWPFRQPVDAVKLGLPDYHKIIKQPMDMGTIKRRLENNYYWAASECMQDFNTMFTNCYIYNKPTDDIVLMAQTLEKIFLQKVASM
MEASUREMENT_NOTES: DSF thermal shift
Assay type: binding
TEST_SETTINGS: wild type
TEST_READOUT: Thermal stabilisation brd2(1) (°C)

INSERT INTO results (compound, unit_label, quantitative_readout) VALUES
  ('COC(=O)CC1N=C(c2ccc(Cl)cc2)c2cc(OC)cc(C)c2-n2c(C)nnc21 (stereo not shown)', '°C', 0.7),
  ('COC(=O)CC1N=C(c2ccc(Cl)cc2C)c2cc(OC)ccc2-n2c(C)nnc21 (racemic)', '°C', 6.3),
  ('COC(=O)[C@@H](C)[C@@H]1N=C(c2ccc(Cl)cc2)c2cc(OC)ccc2-n2c(C)nnc21 (racemic)', '°C', '−0.3'),
  ('COC(=O)CC1N=C(c2ccc(Cl)c(C)c2)c2cc(OC)ccc2-n2c(C)nnc21 (racemic)', '°C', 1.5);

###

MEASURED_TARGET: Brd2(2) (Homo sapiens)
Construct: Plasmids of the eight single BET bromodomain constructs Brd2(1), Brd2(2), Brd3(1), Brd3(2); His6 (N); made in house; host or cells: E. coli BL21(DE3)
Sequence (P25440 344-453 limits assumed): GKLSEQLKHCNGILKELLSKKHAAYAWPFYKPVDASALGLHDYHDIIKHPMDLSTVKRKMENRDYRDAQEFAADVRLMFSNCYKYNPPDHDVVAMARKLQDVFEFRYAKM
MEASUREMENT_NOTES: DSF thermal shift
Format: binding
TEST_SETTINGS: wild type
Method: DSF assays were performed on a LightCycler®480 from Roche or a Mx3005P Real Time PCR machine from Stratagene. […] SYPRO®Orange from Invitrogen Molecular Probes® was used as a reporter dye to monitor the denaturing process of the proteins. […] The temperature was raised with a step of 0.6° C. per minute from 37° C. to 95° C. with the LightCycler®480 collecting 39 measurements per ° C., and 1° C. per minute from 25° C. to 95° C. with Mx3005P, collecting fluorescence readings at the end of each interval. […]
TEST_READOUT: ΔTm Brd2(2) (K)

INSERT INTO results (molecule, unit_label, quantitative_readout) VALUES
  ('COc1cc(C)ccc1S(=O)(=O)Nc1ccc2c(c1)CN(C)C(=O)N2', 'K', 2.8),
  ('COC(=O)[C@@H](C)[C@@H]1N=C(c2ccc(Cl)cc2)c2cc(OC)ccc2-n2c(C)nnc21 (racemic)', 'K', 0.2),
  ('COC(=O)CC1N=C(c2cccc3[nH]ccc23)c2cc(OC)ccc2-n2c(C)nnc21 (stereo not shown)', 'K', 7.7),
  ('CC[C@H](C(=O)OC)[C@@H]1N=C(c2ccc(Cl)cc2)c2cc(OC)ccc2-n2c(C)nnc21 (racemic)', 'K', 0.9),
  ('Cc1cccc(Cl)c1S(=O)(=O)Nc1ccc2c(c1)CN(C)C(=O)N2', 'K', 5.3),
  ('COc1ccc(OC)c(S(=O)(=O)Nc2ccc3c(c2)CN(C)C(=O)N3)c1', 'K', 2.1),
  ('CN1Cc2cc(NS(=O)(=O)c3c(Cl)cccc3Cl)ccc2NC1=O', 'K', 0.6),
  ('CCNC(=O)CC1N=C(c2ccc(Cl)cc2)c2cc(OC)cc(C)c2-n2c(C)nnc21 (stereo not shown)', 'K', 3.8),
  ('COC(=O)CC1(C)N=C(c2ccc(Cl)cc2)c2cc(OC)ccc2-n2c(C)nnc21 (racemic)', 'K', 5.3),
  ('CC[C@@H](C(=O)OC)[C@@H]1N=C(c2ccc(Cl)cc2)c2cc(OC)ccc2-n2c(C)nnc21 (racemic)', 'K', 1.6),
  ('COC(=O)[C@@H](CC1CC1)[C@@H]1N=C(c2ccc(Cl)cc2)c2cc(OC)ccc2-n2c(C)nnc21 (racemic)', 'K', 1.1),
  ('COc1ccccc1S(=O)(=O)Nc1ccc2c(c1)CN(C)C(=O)N2 [PFI-1, reference compound]', 'K', 4.5),
  ('Cc1cc(C)c(S(=O)(=O)Nc2ccc3c(c2)CN(C)C(=O)N3)c(C)c1', 'K', 2.7),
  ('Cc1cccc(S(=O)(=O)Nc2ccc3c(c2)CN(C)C(=O)N3)c1', 'K', 0.7),
  ('COc1ccc(S(=O)(=O)Nc2ccc3c(c2)CN(C)C(=O)N3)cc1', 'K', 3.1),
  ('CN1Cc2cc(NS(=O)(=O)c3ccc(-c4ccccc4)cc3)ccc2NC1=O', 'K', 0.0);
